- Experimental Target: T1, HLA-DRB1*1501 (human)
- T1 construct: human MHC class II allotype
- Assay Remarks: competitive MHC class II binding assay; competitor: control peptide Human myelin basic protein 85-99
# reported ratio of IC50 to that of the control peptide; entries follow
Answer in ratio, number only, no unit symbol.

Guide cases for ratio of IC50 to that of the control peptide, answers given:
{"columns": ["Binder", "Value Measured"],
 "data": [
  ["RNIQVRGLKQMKRVG [HDM34]", 769],
  ["DTVRAEMTKVLAP [HDM49]", 671],
  ["RTVTPIRMQGGCG [HDM02]", 80]
]}

Now for another entry.
Asked: What measured ratio of IC50 to that of the control peptide goes with REALAQTHSAIAVI [HDM09A] ?
Given back: 200

Source: patent US20100260805A1
